target.or.test.system: Mitogen-activated protein kinase kinase kinase 5 (Homo sapiens)
Sequence (Q99683 whole entry): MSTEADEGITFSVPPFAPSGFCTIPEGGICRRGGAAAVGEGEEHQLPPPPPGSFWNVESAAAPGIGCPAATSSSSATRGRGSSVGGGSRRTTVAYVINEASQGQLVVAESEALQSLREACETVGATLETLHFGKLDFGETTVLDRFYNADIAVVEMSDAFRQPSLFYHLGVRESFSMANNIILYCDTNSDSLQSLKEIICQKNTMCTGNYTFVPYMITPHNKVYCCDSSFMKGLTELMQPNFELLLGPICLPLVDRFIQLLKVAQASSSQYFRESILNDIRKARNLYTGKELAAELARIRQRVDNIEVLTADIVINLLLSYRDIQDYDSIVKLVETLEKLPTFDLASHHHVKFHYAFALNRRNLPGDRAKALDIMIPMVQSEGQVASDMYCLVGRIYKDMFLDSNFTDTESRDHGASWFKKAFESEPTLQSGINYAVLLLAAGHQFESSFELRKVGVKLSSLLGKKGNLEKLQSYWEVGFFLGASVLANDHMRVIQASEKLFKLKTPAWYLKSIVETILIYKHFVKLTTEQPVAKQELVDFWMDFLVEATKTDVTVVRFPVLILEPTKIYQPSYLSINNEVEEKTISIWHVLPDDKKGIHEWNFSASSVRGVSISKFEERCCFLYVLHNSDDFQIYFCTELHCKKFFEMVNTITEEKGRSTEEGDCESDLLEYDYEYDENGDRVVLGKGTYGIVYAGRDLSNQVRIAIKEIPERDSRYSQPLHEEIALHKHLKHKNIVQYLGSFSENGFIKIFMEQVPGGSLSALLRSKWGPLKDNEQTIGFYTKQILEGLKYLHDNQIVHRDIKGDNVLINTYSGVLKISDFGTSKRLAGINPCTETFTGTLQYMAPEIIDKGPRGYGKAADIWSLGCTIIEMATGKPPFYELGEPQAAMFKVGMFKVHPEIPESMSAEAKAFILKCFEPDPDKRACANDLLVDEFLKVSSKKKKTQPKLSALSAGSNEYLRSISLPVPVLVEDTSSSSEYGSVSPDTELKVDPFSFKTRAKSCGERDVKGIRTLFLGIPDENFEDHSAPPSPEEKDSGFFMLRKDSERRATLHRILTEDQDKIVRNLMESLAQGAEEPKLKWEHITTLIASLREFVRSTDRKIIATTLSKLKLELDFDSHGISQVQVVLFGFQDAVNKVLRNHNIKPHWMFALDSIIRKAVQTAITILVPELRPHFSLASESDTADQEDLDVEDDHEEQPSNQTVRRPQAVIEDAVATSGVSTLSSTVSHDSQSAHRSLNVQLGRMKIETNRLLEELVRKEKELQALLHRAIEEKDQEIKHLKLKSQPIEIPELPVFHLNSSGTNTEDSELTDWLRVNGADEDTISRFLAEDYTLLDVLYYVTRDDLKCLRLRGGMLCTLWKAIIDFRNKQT
experiment.notes: Biochemical Assay: The binding of compounds to ASK1 were determined using DiscoverX's proprietary technology. […] The assay is performed by combining three components: DNA-tagged ASK1 kinase; immobilized ligand; and a test compound. The ability of the test compound to compete with the immobilized ligand is measured via quantitative PCR of the DNA tag. […] The liganded beads were blocked with excess biotin and washed with blocking buffer (SeaBlock (Pierce), 1% BSA, 0.05% Tween 20, 1 mM DTT) to remove unbound ligand and to reduce nonspecific binding. […] Kds were determined using an 11-point 3-fold compound dilution series with three DMSO control points. […] The compounds were then diluted directly into the assays such that the final concentration of DMSO was 0.9%. All reactions were performed in polypropylene 384-well plate. […] The kinase concentration in the eluates was measured by qPCR. Most Kds were determined using a compound top concentration=30,000 nM.
property: Kd

[[record]]
molecular_string = "Cc1ncc(-c2ccc3c(c2)C(=O)Nc2cccc(n2)-c2nncn2CCCCO3)cc1F"
target_or_test_system = "Mitogen-activated protein kinase kinase kinase 5 (Homo sapiens)"
reported = "< 100 nM"


In: Name the reported Kd value associated with the compound O=C1Nc2cccc(n2)-c2nncn2CCCCOc2ccc(-c3ccc(CCF)nc3)cc21
Out: < 100 nM
